Reported YAP1 (% UTC) by item:
# Test system: Yap1 mRNA
# test: Antisense inhibition of human Yap1 in A-431 cells by cEt gapmers, single dose (Example 2, RTS4814)
# Format: cell-based
# study conditions: Table 6; A-431 cells, 5,000 cells per well, free uptake, 2,000 nM modified oligonucleotide, approx. 48 hours; RTS4814; normalized to RIBOGREEN; Yap1 mRNA relative to untreated control cells
# Method: Modified oligonucleotides were designed to target a Yap1 nucleic acid and were tested for their effect on Yap1 mRNA level in vitro. The modified oligonucleotides were tested in a series of experiments that had similar culture conditions. […] After a treatment period of approximately 48 hours, RNA was isolated from the cells and Yap1 mRNA levels were measured by quantitative real-time RTPCR. […] Yap1 mRNA levels were normalized to total RNA content, as measured by RIBOGREEN®. […]
Strand notation (5' to 3'): a small letter for the sugar, then the base; units joined by * are phosphorothioate-linked, units joined directly phosphodiester-linked; [ ] holds rarer units or linkages, { } end groups; capitals alone tell only the bases. k = constrained ethyl (cEt); [5mC] = 5-methylcytosine; d = 2'-deoxy (DNA)
Report the value in % UTC with no unit label.

// below: answered substances
> print(dat)
                                  substance      u  recorded.measurement
1  716348 (kA*k[5mC]*kG*dG*dA*dG*dG*d[5mC]*d[5mC]*dG*dG*dA*d[5mC]*kA*kG*k[5mC]; antisense) [Compound 716348]  % UTC                   107
2  716354 (kT*k[5mC]*kG*d[5mC]*dT*d[5mC]*dT*d[5mC]*dA*dG*dG*dG*d[5mC]*k[5mC]*kG*kG; antisense) [Compound 716354]  % UTC                   114
3  716465 (kG*k[5mC]*kT*d[5mC]*dT*dT*dT*d[5mC]*dT*dA*dG*dA*dA*k[5mC]*kA*k[5mC]; antisense) [Compound 716465]  % UTC                    82
4  716504 (kA*kT*kA*dA*dA*dA*dG*d[5mC]*d[5mC]*dT*dT*dA*dG*kA*kG*kT; antisense) [Compound 716504]  % UTC                   112
5  716486 (kA*kT*k[5mC]*dA*dT*dG*dA*dT*dT*dA*dT*d[5mC]*dT*k[5mC]*kT*kA; antisense) [Compound 716486]  % UTC                    68
6  716393 (kT*kT*kG*d[5mC]*dT*dG*d[5mC]*dT*dG*dG*dT*dT*dG*kG*kA*kG; antisense) [Compound 716393]  % UTC                    46
7  716444 (kA*kA*kA*dT*dT*dG*dT*d[5mC]*dT*d[5mC]*dA*dT*dG*k[5mC]*k[5mC]*kT) [Compound 716444]  % UTC                    40
8  716432 (kT*k[5mC]*kT*dG*dA*dG*dT*dA*dT*dT*dT*dA*dG*kT*kT*kA; antisense) [Compound 716432]  % UTC                    30

Query 716528 (antisense kT*kT*kA*dG*dG*dT*d[5mC]*dT*d[5mC]*d[5mC]*dT*dT*d[5mC]*kA*kG*kG) [Compound 716528] yields YAP1 (% UTC) of 70

Query 716426 (kT*kT*kT*dG*dA*dT*dT*d[5mC]*dT*dT*dT*dA*dG*kA*kG*k[5mC]; antisense) [Compound 716426] yields YAP1 (% UTC) of 45

Query 716510 (antisense k[5mC]*kA*kA*d[5mC]*dA*dT*dG*d[5mC]*dT*dA*dT*dG*dT*kA*kA*kT) [Compound 716510] yields YAP1 (% UTC) of 122

Query 716360 (k[5mC]*kT*kG*d[5mC]*d[5mC]*d[5mC]*dG*dG*dG*dA*dT*d[5mC]*d[5mC]*kA*kT*kG; antisense) [Compound 716360] yields YAP1 (% UTC) of 118

Query 716351 (kG*kG*kT*d[5mC]*dT*dG*dG*d[5mC]*dG*dG*d[5mC]*dT*dG*k[5mC]*kG*k[5mC]; antisense) [Compound 716351] yields YAP1 (% UTC) of 112

Origin of values: patent US11214803B2
